target: T1, HLA-A*02:01 (human); test: UV-ligand exchange, anti-b2m ELISA; peptide exchange yield grade
T1 construct: MHC monomers first loaded with a UV-sensitive peptide (not identified) that is cleaved and exchanged for the test peptide; captured on streptavidin-coated plates and detected with anti-β2m; also called peptide-receptive MHC molecules; MHC class I
recorded_metric: peptide exchange yield

Per the records, this binder ( `AIDDTAARL` ) has peptide exchange yield equal to 50 to 75%

Per the records, this binder ( `RLLDTTDVYLL` ) has peptide exchange yield equal to ≥ 75%

Per the records, this binder ( `FLDQTDETL` ) has peptide exchange yield equal to 50 to 75%

Per the records, this binder ( `TLIDATWLV` ) has peptide exchange yield equal to ≥ 75%
